Test system: 616215-338-R-J1-PDC complex spheroid viability
run-description: Anticancer human tumor 616215-338-R-J1-PDC patient-derived colon adenocarcinoma cell line growth inhibition [RAS]
condition-parameters: second compound 0.03 µM; first compound 0.1 µM; active compounds read low
metric-name: viability, T/C (%)
Numbers only, in %.

Solved entries (count: 3):
compound	result-units	viability, T/C
CCC(CC)c1cc(NC2CCC(N)C2)n2nccc2n1 (centres undefined) + CCn1c(-c2cccnc2C(C)OC)c2c3cc(ccc31)N1CCOC(CC(NC(=O)C(C(C)C)N(C)C(=O)C3(F)CCN(C(=O)C#CC(C)(C)N(C)C)CC3)C(=O)N3CCCC(N3)C(=O)OCC(C)(C)C2)C1	%	93.3
Nc1ccn(C2OC(CO)C(O)C2(F)F)c(=O)n1 (centres undefined) + CCn1c(-c2cc(N3CCN(C)CC3)cnc2C(C)OC)c2c3cc(ccc31)-c1csc(n1)CC(NC(=O)C1CC1C)C(=O)N1CCCC(N1)C(=O)OCC(C)(C)C2	%	9.6
NC1c2ccccc2OC12CCN(c1cnc3c(N4CCCc5ncccc54)n[nH]c3n1)CC2 (centres undefined) + CCn1c(-c2cc(N3CCN(C)CC3)cnc2C(C)OC)c2c3cc(ccc31)-c1csc(n1)CC(NC(=O)C1CC1C)C(=O)N1CCCC(N1)C(=O)OCC(C)(C)C2	%	34.9

Consider now this further compound.
GET viability, T/C where system = 616215-338-R-J1-PDC complex spheroid viability and item = C=CC(=O)Nc1cc(Nc2nccc(-c3cn(C)c4ccccc34)n2)c(OC)cc1N(C)CCN(C)C + CCn1c(-c2cccnc2C(C)OC)c2c3cc(ccc31)N1CCOC(CC(NC(=O)C(C(C)C)N(C)C(=O)C3(F)CCN(C(=O)C#CC(C)(C)N(C)C)CC3)C(=O)N3CCCC(N3)C(=O)OCC(C)(C)C2)C1 110

* * *

Exercise: for every item that follows, state its recorded viability, T/C.
Test system: 616215-338-R-J1-PDC complex spheroid viability
run-description: Anticancer human tumor 616215-338-R-J1-PDC cell line growth inhibition [RAS];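 also: spheroids exposed to agents for seven days before viability readout; 100% = DMSO vehicle control viability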
condition-parameters: second compound 0.00949 µM; first compound 0.000949 µM; active compounds read low

molecule	tested-system	viability, T/C
CCc1c2c(nc3ccc(O)cc13)-c1cc3c(c(=O)n1C2)COC(=O)[C@]3(O)CC + CCn1c(-c2cc(N3CCN(C)CC3)cnc2C(C)OC)c2c3cc(ccc31)-c1csc(n1)CC(NC(=O)C1CC1C)C(=O)N1CCCC(N1)C(=O)OCC(C)(C)C2	616215-338-R-J1-PDC complex spheroid viability	87.6%
CC1(C)CCC(Nc2ncc(C(F)(F)F)c(-c3c[nH]c4c(P(C)(C)=O)c(C#N)ccc34)n2)CN1 (centres undefined) + CCn1c(-c2cc(N3CCN(C)CC3)cnc2C(C)OC)c2c3cc(ccc31)-c1csc(n1)CC(NC(=O)C1CC1C)C(=O)N1CCCC(N1)C(=O)OCC(C)(C)C2	616215-338-R-J1-PDC complex spheroid viability	82.9%
CCc1c2c(nc3ccc(O)cc13)-c1cc3c(c(=O)n1C2)COC(=O)[C@]3(O)CC + CCn1c(-c2cccnc2C(C)OC)c2c3cc(ccc31)N1CCOC(CC(NC(=O)C(C(C)C)N(C)C(=O)C3(F)CCN(C(=O)C#CC(C)(C)N(C)C)CC3)C(=O)N3CCCC(N3)C(=O)OCC(C)(C)C2)C1	616215-338-R-J1-PDC complex spheroid viability	107%

Consider now this further molecule.
Give viability, T/C for CC1(C)CCC(Nc2ncc(C(F)(F)F)c(-c3c[nH]c4c(P(C)(C)=O)c(C#N)ccc34)n2)CN1 (centres undefined) + CCn1c(-c2cccnc2C(C)OC)c2c3cc(ccc31)N1CCOC(CC(NC(=O)C(C(C)C)N(C)C(=O)C3(F)CCN(C(=O)C#CC(C)(C)N(C)C)CC3)C(=O)N3CCCC(N3)C(=O)OCC(C)(C)C2)C1 113%
